# target.desc: Zif268 wildtype (three zinc fingers, phage displayed) (Mus musculus, UniProt P08046 P08046:333-421)
# method: ELONA; negative control; apparent Kd; microarray signal 0.052
pKd: −log10 of the molar value.

binder: Zif268 site AAA (dsDNA, [none]) DNA 1: TATATAGCGAAAGCGTATATATCAAGTCAATCGGTCC DNA 2: GGACCGATTGACTTGATATATACGCTTTCGCTATATA
pKd: < 5.30

Data origin: patent US20040203002
